Where do these numbers come from? They come from ChEMBL document CHEMBL1201862.

Each item that follows carries a reported GI50.
System: A498
assaySummary: NCI tumour cell line growth inhibition, 48 h
Activity calls are given as the source filed them. Cut-off read from the data, not from the text of the source: active = GI50 up to about 1.1 µM and inactive = higher.

These recorded examples may help you get a feel for the data.
{"molecule": "COc1cccc(Nc2nc(NNC(=O)Cc3ccccc3)nc(NNC(=O)c3ccncc3)n2)c1", "GI50": "> 100 µM (inactive)"}
{"molecule": "NC(CSS(=O)(=O)c1ccccc1)C(=O)O (stereo not drawn)", "GI50": "> 10 µM (inactive)"}
{"molecule": "CCN(CC)CCOCCOCC1(c2ccc(Cl)c(Cl)c2)CCCCC1", "GI50": "13.1 µM (inactive)"}
{"molecule": "CCCCCNC1=CC(=O)c2ccccc2C1=O", "GI50": "32.1 µM (inactive)"}
{"molecule": "CCOC(=O)c1c(N2CCCC2)[nH]c(=O)c(C(c2ccc(OC)cc2)c2c(O)c(C(=O)OCC)c(N3CCCC3)[nH]c2=O)c1O", "GI50": "> 100 µM (inactive)"}

Entry Oc1cc(F)cc2cccnc12 has what GI50? 6.58 µM (inactive)
